format: in vivo, FVB mice; settings: Bcrp1^−/− FVB mice, oral kaempferol 10 mg/kg
measured-property: Cmax (µM)

O=C(O)[C@H]1O[C@@H](Oc2cc(O)c3c(=O)c(O)c(-c4ccc(O)cc4)oc3c2)[C@H](O)[C@@H](O)[C@@H]1O [K-7-G, kaempferol-7-glucuronide]    14.9
O=C(O)[C@H]1O[C@@H](Oc2c(-c3ccc(O)cc3)oc3cc(O)cc(O)c3c2=O)[C@H](O)[C@@H](O)[C@@H]1O [K-3-G, kaempferol-3-glucuronide]    18

* * *

type: in vivo, FVB mice; conditions: Mrp1^−/− FVB mice, oral kaempferol 10 mg/kg
measured-property: Cmax (nM)

(1) O=C(O)[C@H]1O[C@@H](Oc2c(-c3ccc(O)cc3)oc3cc(O)cc(O)c3c2=O)[C@H](O)[C@@H](O)[C@@H]1O [K-3-G, kaempferol-3-glucuronide]
(2) O=C(O)[C@H]1O[C@@H](Oc2cc(O)c3c(=O)c(O)c(-c4ccc(O)cc4)oc3c2)[C@H](O)[C@@H](O)[C@@H]1O [K-7-G, kaempferol-7-glucuronide]
// which entry has the larger Cmax value, 1 or 2 ? Answer format: the label of the selected item.
1

* * *

experiment: Pharmacokinetic study in rats after oral administration of kaempferol; format: in vivo, Sprague–Dawley (SD) rats; conditions: male, Sprague-Dawley, rat, plasma, po, 10 mg/kg
measured-property: Tmax (h)

(a) O=c1c(O)c(-c2ccc(O)cc2)oc2cc(O)cc(O)c12 [Kaempferol, 3,4′,5,7-trihydroxyflavone]
(b) O=c1c(O)c(-c2ccc(O)cc2)oc2cc(OS(=O)(=O)O)cc(O)c12 [K-7-S, kaempferol-7-sulfate]
// which entry has the larger Tmax value, a or b ? Answer format: the label of the selected item.
b

* * *

assay: Pharmacokinetic study in rats after oral administration of kaempferol; format: in vivo, Sprague–Dawley (SD) rats; settings: plasma, male SD rats, oral kaempferol 10 mg/kg, n = 6
measured-property: Cmax (µM)

(I) O=C(O)[C@H]1O[C@@H](Oc2cc(O)c3c(=O)c(O)c(-c4ccc(O)cc4)oc3c2)[C@H](O)[C@@H](O)[C@@H]1O [K-7-G, kaempferol-7-glucuronide]
(II) O=C(O)[C@H]1O[C@@H](Oc2c(-c3ccc(O)cc3)oc3cc(O)cc(O)c3c2=O)[C@H](O)[C@@H](O)[C@@H]1O [K-3-G, kaempferol-3-glucuronide]
// which entry has the larger Cmax value, I or II ? Answer format: the label of the selected item.
II
(II: 24.6 µM, I: 5.29 µM)

* * *

test: Pharmacokinetic study in rats after oral administration of kaempferol; format: in vivo, Sprague–Dawley (SD) rats; conditions: plasma, male SD rats, oral kaempferol 20 mg/kg, n = 6
measured-property: Cmax (µM)

(P) O=C(O)[C@H]1O[C@@H](Oc2c(-c3ccc(O)cc3)oc3cc(O)cc(O)c3c2=O)[C@H](O)[C@@H](O)[C@@H]1O [K-3-G, kaempferol-3-glucuronide]
(Q) O=C(O)[C@H]1O[C@@H](Oc2cc(O)c3c(=O)c(O)c(-c4ccc(O)cc4)oc3c2)[C@H](O)[C@@H](O)[C@@H]1O [K-7-G, kaempferol-7-glucuronide]
// which entry has the larger Cmax value, P or Q ? Answer format: the label of the selected item.
P
(P: 30.9 µM, Q: 9.55 µM)

* * *

assay: Pharmacokinetic study in rats after oral administration of kaempferol; format: in vivo, Sprague–Dawley (SD) rats; conditions: plasma, male SD rats, oral kaempferol 20 mg/kg, n = 6
measured-property: AUC0-t (µmol·min/L)

(I) O=c1c(O)c(-c2ccc(O)cc2)oc2cc(O)cc(O)c12 [Kaempferol, 3,4′,5,7-trihydroxyflavone]
(II) O=C(O)[C@H]1O[C@@H](Oc2cc(O)c3c(=O)c(O)c(-c4ccc(O)cc4)oc3c2)[C@H](O)[C@@H](O)[C@@H]1O [K-7-G, kaempferol-7-glucuronide]
// which entry has the larger AUC0-t value, I or II ? Answer format: the label of the selected item.
II
(II: 802 µmol·min/L, I: 51.8 µmol·min/L)

* * *

format: in vivo, FVB mice; settings: male, FVB, mouse, plasma, po, 10 mg/kg, Cmax, wild-type FVB mice, oral kaempferol 10 mg/kg
measured-property: Cmax (µM)
Kindly answer with a numeric value in µM, unit omitted.

Data point: O=c1c(O)c(-c2ccc(O)cc2)oc2cc(OS(=O)(=O)O)cc(O)c12 [K-7-S, kaempferol-7-sulfate] ; Cmax = 0.301

* * *

type: in vivo, FVB mice; conditions: Mdr1a^−/− FVB mice, oral kaempferol 10 mg/kg
measured-property: Cmax (nM)

(1) O=C(O)[C@H]1O[C@@H](Oc2c(-c3ccc(O)cc3)oc3cc(O)cc(O)c3c2=O)[C@H](O)[C@@H](O)[C@@H]1O [K-3-G, kaempferol-3-glucuronide]
(2) O=C(O)[C@H]1O[C@@H](Oc2cc(O)c3c(=O)c(O)c(-c4ccc(O)cc4)oc3c2)[C@H](O)[C@@H](O)[C@@H]1O [K-7-G, kaempferol-7-glucuronide]
Quick one: lower Cmax, 1 or 2 ? Answer format: the label of the selected item.
2

* * *

assay: Pharmacokinetic study in rats after oral administration of kaempferol; assay type: in vivo, Sprague–Dawley (SD) rats; conditions: male, Sprague-Dawley, rat, plasma, po, 20 mg/kg
measured-property: MRT last (h)

(a) O=c1c(O)c(-c2ccc(O)cc2)oc2cc(OS(=O)(=O)O)cc(O)c12 [K-7-S, kaempferol-7-sulfate]
(b) O=c1c(O)c(-c2ccc(O)cc2)oc2cc(O)cc(O)c12 [Kaempferol, 3,4′,5,7-trihydroxyflavone]
Quick one: lower MRT last, a or b ? Answer format: the label of the selected item.
b

* * *

test: Pharmacokinetic study in rats after oral administration of kaempferol; format: in vivo, Sprague–Dawley (SD) rats; conditions: predicted AUC; plasma, male SD rats, oral kaempferol 10 mg/kg, n = 6
measured-property: AUC0−∞ (µmol·min/L)

(A) O=C(O)[C@H]1O[C@@H](Oc2cc(O)c3c(=O)c(O)c(-c4ccc(O)cc4)oc3c2)[C@H](O)[C@@H](O)[C@@H]1O [K-7-G, kaempferol-7-glucuronide]
(B) O=c1c(O)c(-c2ccc(O)cc2)oc2cc(O)cc(O)c12 [Kaempferol, 3,4′,5,7-trihydroxyflavone]
(C) O=c1c(O)c(-c2ccc(O)cc2)oc2cc(OS(=O)(=O)O)cc(O)c12 [K-7-S, kaempferol-7-sulfate]
Sort low-to-high on AUC0−∞, please. Return the labels ranked in the requested order, please.
B, A, C
(B: 11.4 µmol·min/L, A: 314 µmol·min/L, C: 536 µmol·min/L)

* * *

experiment: Pharmacokinetic study in rats after oral administration of kaempferol; assay type: in vivo, Sprague–Dawley (SD) rats; settings: male, Sprague-Dawley, rat, plasma, po, 10 mg/kg
measured-property: Cmax (nM)

O=c1c(O)c(-c2ccc(O)cc2)oc2cc(OS(=O)(=O)O)cc(O)c12 [K-7-S, kaempferol-7-sulfate]    332
O=c1c(O)c(-c2ccc(O)cc2)oc2cc(O)cc(O)c12 [Kaempferol, 3,4′,5,7-trihydroxyflavone]    305

* * *

type: in vivo, FVB mice; details: male, FVB, mouse, plasma, po, 10 mg/kg, MRT, wild-type FVB mice, oral kaempferol 10 mg/kg
measured-property: MRT (h)
Kindly answer with a numeric value in h, unit omitted.

Data point: O=c1c(O)c(-c2ccc(O)cc2)oc2cc(OS(=O)(=O)O)cc(O)c12 [K-7-S, kaempferol-7-sulfate] ; MRT = 2.75

* * *

assay: Pharmacokinetic study in rats after oral administration of kaempferol; format: in vivo, Sprague–Dawley (SD) rats; details: plasma, male SD rats, oral kaempferol 10 mg/kg, n = 6
measured-property: AUC0-t (µmol·min/L)

(P) O=C(O)[C@H]1O[C@@H](Oc2cc(O)c3c(=O)c(O)c(-c4ccc(O)cc4)oc3c2)[C@H](O)[C@@H](O)[C@@H]1O [K-7-G, kaempferol-7-glucuronide]
(Q) O=c1c(O)c(-c2ccc(O)cc2)oc2cc(O)cc(O)c12 [Kaempferol, 3,4′,5,7-trihydroxyflavone]
(R) O=c1c(O)c(-c2ccc(O)cc2)oc2cc(OS(=O)(=O)O)cc(O)c12 [K-7-S, kaempferol-7-sulfate]
Sequence the entries by AUC0-t, beginning with the highest number. Return the labels ranked in the requested order, please.
R, P, Q

* * *

assay: Pharmacokinetic study in rats after oral administration of kaempferol; type: in vivo, Sprague–Dawley (SD) rats; conditions: predicted AUC; plasma, male SD rats, oral kaempferol 20 mg/kg, n = 6
measured-property: AUC0−∞ (µmol·min/L)

(P) O=c1c(O)c(-c2ccc(O)cc2)oc2cc(O)cc(O)c12 [Kaempferol, 3,4′,5,7-trihydroxyflavone]
(Q) O=C(O)[C@H]1O[C@@H](Oc2cc(O)c3c(=O)c(O)c(-c4ccc(O)cc4)oc3c2)[C@H](O)[C@@H](O)[C@@H]1O [K-7-G, kaempferol-7-glucuronide]
Quick one: lower AUC0−∞, P or Q ? Answer format: the label of the selected item.
P
(P: 57.9 µmol·min/L, Q: 811 µmol·min/L)
